# MEASUREMENT TARGET: DRB*0701 (human)
# PROCEDURE DETAILS: HLA competition binding
OBSERVATION TYPE: pIC50
# pIC50 is unitless: minus log10 of the molar concentration; print number only

Asked: I'd like to know its pIC50. The binder in question is MGEVVAATPTSLLIS [N-terminal to BC Loop SEQ ID NO 53]
Given back: 6.30

Asked: I'd like to know its pIC50. The binder in question is PTSLLISWDAPAVTVRYYRITYG [BC Loop SEQ ID NO 58]
Given back: 6.00
